measured_on: T1, RBFOX1 RRM RbFoxmut (Fox-RRM*) (Homo sapiens, UniProt Q9NWB1 109-208, R118D;E147R;N151S;E152T)
T1 sequence: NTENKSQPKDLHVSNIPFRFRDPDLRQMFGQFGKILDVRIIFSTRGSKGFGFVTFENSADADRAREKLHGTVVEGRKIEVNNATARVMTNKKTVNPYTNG
test_description: EMSA; HiTS-Eq, 1 nM pool, 10 min; buffer printed only for the single-RNA assays: 10 mM Tris pH 7.5, 150 mM NaCl, 3.4 mM EDTA, 0.001% NP-40, 30 C
condition_description: tags: His6 N-terminal (pET28a); label: 5' 32P
Over roughly 16,000 sequences, “ka relative to ugcaugu” has its median near 0.096; the highest 2% begin near 0.35. This excerpt belongs to a sample that is enriched for the highest values.
A collection of binders and their measured binding signal
measure: binding signal

• UCUUGCA (DNA:RNA) RNA: GGGAGACCGGAAUUCAGAUUGUCCUCUUGCAUUAAAUCCCGUCGUAGCCACCA DNA 1: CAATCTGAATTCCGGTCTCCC DNA 2: TGGTGGCTACGACGGGATT = 0.205 KA relative to UGCAUGU
• GACAUAA (DNA:RNA) RNA: GGGAGACCGGAAUUCAGAUUGUCCGACAUAAUUAAAUCCCGUCGUAGCCACCA DNA 1: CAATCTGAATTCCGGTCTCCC DNA 2: TGGTGGCTACGACGGGATT = 0.115 KA relative to UGCAUGU
• AUUUCAU (DNA:RNA) RNA: GGGAGACCGGAAUUCAGAUUGUCCAUUUCAUUUAAAUCCCGUCGUAGCCACCA DNA 1: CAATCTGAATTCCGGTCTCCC DNA 2: TGGTGGCTACGACGGGATT = 0.12 KA relative to UGCAUGU
• AGGGCAC (DNA:RNA) RNA: GGGAGACCGGAAUUCAGAUUGUCCAGGGCACUUAAAUCCCGUCGUAGCCACCA DNA 1: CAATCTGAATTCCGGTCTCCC DNA 2: TGGTGGCTACGACGGGATT = 0.0707 KA relative to UGCAUGU
• GUGCAUG (DNA:RNA) RNA: GGGAGACCGGAAUUCAGAUUGUCCGUGCAUGUUAAAUCCCGUCGUAGCCACCA DNA 1: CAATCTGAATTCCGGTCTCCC DNA 2: TGGTGGCTACGACGGGATT = 1.39 KA relative to UGCAUGU
